molecular target: KRAS(G12V) (Homo sapiens, UniProt P01116, G12V); construct: anti-KRAS Western blot degradation by PROTACs recruiting CRBN or VHL; assay: KRAS Western Blot Protein Degradation Assay, NCIH727; format: cell-based; settings: 24 hr, read-out: WB data NCIH727 DC50
Sequence (P01116 1-188 isoform P01116-2 G12V): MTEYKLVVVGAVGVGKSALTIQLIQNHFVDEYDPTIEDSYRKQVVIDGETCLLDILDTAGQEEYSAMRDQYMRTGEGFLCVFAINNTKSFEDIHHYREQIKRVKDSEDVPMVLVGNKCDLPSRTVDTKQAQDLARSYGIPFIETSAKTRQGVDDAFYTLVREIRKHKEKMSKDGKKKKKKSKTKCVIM
I'd be grateful if you could share measured DC50 for these entries.

See these solved cases before continuing.
| MOLECULE | OBSERVED |
| --- | --- |
| O=CO.[2H]C([2H])([2H])Oc1nc(-c2cc(O)cc3ccc(F)c(C#C)c23)c(F)c2nc(OCC3(CN4CCN(CC5CCN(c6ccc7c(c6)CN(C6CCC(=O)NC6=O)C7=O)CC5)CC4)CC3)nc(N3CC4CCC(C3)N4C(=O)CCC#N)c12 (centres unmarked) [Compound 114] | < 100 nM |
| C#Cc1c(F)ccc2cc(O)cc(-c3ncc4c(N5CC6CCC(C5)N6C(=O)C(C)(C)C#N)nc(OCC5(CN6CCN(CC7CCN(c8ccc9c(c8)CN(C8CCC(=O)NC8=O)C9=O)CC7)CC6)CC5)nc4c3F)c12 (centres unmarked) [Compound 106] | > 1000 nM |
| C#Cc1c(F)ccc2cc(O)cc(-c3ncc4c(N5CC6CCC(C5)N6C(=O)C(C)C#N)nc(OCC5(CN6CCN(CC7CCN(c8ccc9c(c8)CN(C8CCC(=O)NC8=O)C9=O)CC7)CC6)CC5)nc4c3F)c12 (centres unmarked) [Compound 108] | < 100 nM |
| C#Cc1c(F)ccc2cc(O)cc(-c3ncc4c(N5CC6CCC(C5)N6C(=O)CC#N)nc(OCC5(CN6CCN(CC7CCN(c8ccc9c(c8)CN(C8CCC(=O)NC8=O)C9=O)CC7)CC6)CC5)nc4c3F)c12 (centres unmarked) [Compound 80] | 100 to 1000 nM |

# context switch: different molecule, same DC50
What does the data say about its DC50? Entry: C#Cc1c(F)ccc2cc(O)cc(-c3nc(OC)c4c(N5CC6CCC(C5)N6C(=O)CC#N)nc(OCC5(CN6CCN(CC7CCN(c8ccc9c(c8)CN(C8CCC(=O)NC8=O)C9=O)CC7)CC6)CC5)nc4c3F)c12 (centres unmarked) [Compound 102]
< 100 nM
